Here, each record is paired with measured GI50 data.
System: UACC-62
Test: NCI tumour cell line growth inhibition, 48 h
The source made the active and inactive calls. Cut-off read from the data, not from the text of the source: active = GI50 up to about 1.1 µM and inactive = higher. Where a SMILES comes first, the peptide text is derived from it. The star is where a group is joined. Boc = CC(C)(C)OC(=O)*; tBu = CC(C)(C)*

COMPOUND	ASSAYED_TARGET	MEASUREMENT_NAME	RESULT
N#CC(c1ccccc1)N(CCOCCOCCN(C(=O)c1cccc2ccccc12)C(C#N)c1ccccc1)C(=O)c1cccc2ccccc12 (centres undefined)	UACC-62	GI50	> 100 µM (inactive)
Nc1ccc2cc3ccc(N)cc3nc2c1	UACC-62	GI50	1.41 µM (inactive)
CC(OC(C)(C)C)C(NC(=O)C(N)CCCCNC(=O)OC(C)(C)C)C(=O)NC(Cc1ccccc1)C(=O)O (centres undefined) (H-Lys(Boc)-Thr(tBu)-Phe-OH; configuration not given here)	UACC-62	GI50	> 100 µM (inactive)
CCOC(=O)C1=C(C)N(Cc2ccc(Cl)cc2Cl)C2(O)C(OC)CC(=O)C3C(=O)N(c4ccccc4)C(=O)C132 (centres undefined)	UACC-62	GI50	3.13 µM (inactive)
C[C@H]1C2Cc3cc(N)ccc3[C@@]1(C)CCN2CCc1ccccc1	UACC-62	GI50	45.5 µM (inactive)
CC1(C)N=C(/C(Cl)=[N+](/[O-])C(=O)c2ccc(Cl)cc2)C(C)(C)N1O	UACC-62	GI50	> 10 µM (inactive)

Prompt line: Which GI50 is reported with UACC-62 for this entry: N=C(N)c1ccc(OCCCCCOc2ccc(C(=N)N)cc2)cc1 ?
Response line: 12.2 µM (inactive)

Prompt line: Which GI50 is reported with UACC-62 for this entry: COc1cc([N+](=O)[O-])ccc1N1C(=O)C2c3[nH]c4ccccc4c3C3CCC(C(C)(C)C)CC3C2C1=O (centres undefined) ?
Response line: 19.6 µM (inactive)

Prompt line: Which GI50 is reported with UACC-62 for this entry: CCOC(=O)C(O)(NC(=O)c1ccccc1F)C(F)(F)F (centres undefined) ?
Response line: > 100 µM (inactive)
